system: MCF7; experiment: NCI one-dose screen; format: cell-based; conditions: Homo sapiens; MCF7, 10 µM; read-out: Growth Percent
Each entry below carries its recorded activity at 10 µM.

- molecule: "O=C(/C=C/c1ccc(Cl)cc1)c1ccc(-n2cc(CN3CCN(c4cc5c(cc4F)c(=O)c(C(=O)O)cn5C4CC4)CC3)nn2)cc1 [Compound 4c]"
  activity at 10 µM: "58.2%"
- molecule: "O=C(/C=C/c1cccc(Cl)c1)c1ccc(-n2cc(CN3CCN(c4cc5c(cc4F)c(=O)c(C(=O)O)cn5C4CC4)CC3)nn2)cc1 [Compound 4b]"
  activity at 10 µM: "37.6%"
- molecule: "COc1cc(/C=C/C(=O)c2ccc(-n3cc(CN4CCN(c5cc6c(cc5F)c(=O)c(C(=O)O)cn6C5CC5)CC4)nn3)cc2)cc(OC)c1OC [Compound 4j]"
  activity at 10 µM: "16.1%"
- molecule: "CN(C)c1ccc(/C=C/C(=O)c2ccc(-n3cc(CN4CCN(c5cc6c(cc5F)c(=O)c(C(=O)O)cn6C5CC5)CC4)nn3)cc2)cc1 [Compound 4h]"
  activity at 10 µM: "59.2%"
- molecule: "Cc1ccc(/C=C/C(=O)c2ccc(-n3cc(CN4CCN(c5cc6c(cc5F)c(=O)c(C(=O)O)cn6C5CC5)CC4)nn3)cc2)cc1 [Compound 4f]"
  activity at 10 µM: "64.8%"
- molecule: "COc1ccc(/C=C/C(=O)c2ccc(-n3cc(CN4CCN(c5cc6c(cc5F)c(=O)c(C(=O)O)cn6C5CC5)CC4)nn3)cc2)cc1OC [Compound 4i]"
  activity at 10 µM: "13.2%"

###

Catalogue of activity at 10 µM readings, one per entry.
system: CAKI-1; test: NCI one-dose screen; format: cell-based; conditions: Homo sapiens; CAKI-1, 10 µM; read-out: Growth Percent

- smiles.input: "O=C(/C=C/c1ccc(Cl)cc1)c1ccc(-n2cc(CN3CCN(c4cc5c(cc4F)c(=O)c(C(=O)O)cn5C4CC4)CC3)nn2)cc1"
  u: "%"
  activity at 10 µM: 61.4
- smiles.input: "Cc1ccc(/C=C/C(=O)c2ccc(-n3cc(CN4CCN(c5cc6c(cc5F)c(=O)c(C(=O)O)cn6C5CC5)CC4)nn3)cc2)cc1"
  u: "%"
  activity at 10 µM: 64.4
- smiles.input: "O=C(/C=C/c1cccc(Cl)c1)c1ccc(-n2cc(CN3CCN(c4cc5c(cc4F)c(=O)c(C(=O)O)cn5C4CC4)CC3)nn2)cc1"
  u: "%"
  activity at 10 µM: 52.5
- smiles.input: "O=C(/C=C/c1ccc(F)cc1)c1ccc(-n2cc(CN3CCN(c4cc5c(cc4F)c(=O)c(C(=O)O)cn5C4CC4)CC3)nn2)cc1"
  u: "%"
  activity at 10 µM: 36.9
- smiles.input: "CN(C)c1ccc(/C=C/C(=O)c2ccc(-n3cc(CN4CCN(c5cc6c(cc5F)c(=O)c(C(=O)O)cn6C5CC5)CC4)nn3)cc2)cc1"
  u: "%"
  activity at 10 µM: 69.8
- smiles.input: "COc1cc(/C=C/C(=O)c2ccc(-n3cc(CN4CCN(c5cc6c(cc5F)c(=O)c(C(=O)O)cn6C5CC5)CC4)nn3)cc2)cc(OC)c1OC"
  u: "%"
  activity at 10 µM: 60
- smiles.input: "O=C(/C=C/c1ccc(Br)cc1)c1ccc(-n2cc(CN3CCN(c4cc5c(cc4F)c(=O)c(C(=O)O)cn5C4CC4)CC3)nn2)cc1"
  u: "%"
  activity at 10 µM: 68.7
- smiles.input: "COc1ccc(/C=C/C(=O)c2ccc(-n3cc(CN4CCN(c5cc6c(cc5F)c(=O)c(C(=O)O)cn6C5CC5)CC4)nn3)cc2)cc1"
  u: "%"
  activity at 10 µM: 75.5
- smiles.input: "O=C(/C=C/c1ccccc1)c1ccc(-n2cc(CN3CCN(c4cc5c(cc4F)c(=O)c(C(=O)O)cn5C4CC4)CC3)nn2)cc1"
  u: "%"
  activity at 10 µM: 87.8

###

system: OVCAR-4; assay: NCI one-dose screen; assay type: cell-based; settings: Homo sapiens; OVCAR-4, 10 µM; read-out: Growth Percent

- compound: "O=C(/C=C/c1ccc(Cl)cc1)c1ccc(-n2cc(CN3CCN(c4cc5c(cc4F)c(=O)c(C(=O)O)cn5C4CC4)CC3)nn2)cc1 [Compound 4c]"
  activity at 10 µM [%]: 89.7
- compound: "COc1ccc(/C=C/C(=O)c2ccc(-n3cc(CN4CCN(c5cc6c(cc5F)c(=O)c(C(=O)O)cn6C5CC5)CC4)nn3)cc2)cc1OC [Compound 4i]"
  activity at 10 µM [%]: 88
- compound: "Cc1ccc(/C=C/C(=O)c2ccc(-n3cc(CN4CCN(c5cc6c(cc5F)c(=O)c(C(=O)O)cn6C5CC5)CC4)nn3)cc2)cc1 [Compound 4f]"
  activity at 10 µM [%]: 91.4

###

system: SN12C; experiment: NCI one-dose screen; assay type: cell-based; conditions: Homo sapiens, read-out: Growth Percent
Reported activity at 10 µM by item:

- compound: "O=C(/C=C/c1ccccc1)c1ccc(-n2cc(CN3CCN(c4cc5c(cc4F)c(=O)c(C(=O)O)cn5C4CC4)CC3)nn2)cc1 [Compound 4a]"
  activity at 10 µM [%]: 103
- compound: "O=C(/C=C/c1ccc(Br)cc1)c1ccc(-n2cc(CN3CCN(c4cc5c(cc4F)c(=O)c(C(=O)O)cn5C4CC4)CC3)nn2)cc1 [Compound 4d]"
  activity at 10 µM [%]: 58.8
- compound: "COc1ccc(/C=C/C(=O)c2ccc(-n3cc(CN4CCN(c5cc6c(cc5F)c(=O)c(C(=O)O)cn6C5CC5)CC4)nn3)cc2)cc1 [Compound 4g]"
  activity at 10 µM [%]: 58.2
- compound: "Cc1ccc(/C=C/C(=O)c2ccc(-n3cc(CN4CCN(c5cc6c(cc5F)c(=O)c(C(=O)O)cn6C5CC5)CC4)nn3)cc2)cc1 [Compound 4f]"
  activity at 10 µM [%]: 44.9
- compound: "O=C(/C=C/c1ccc(Cl)cc1)c1ccc(-n2cc(CN3CCN(c4cc5c(cc4F)c(=O)c(C(=O)O)cn5C4CC4)CC3)nn2)cc1 [Compound 4c]"
  activity at 10 µM [%]: 45.8

###

Recorded activity at 10 µM values for a group of molecules are listed next.
tested on: OVCAR-5; test: NCI one-dose screen; format: cell-based; settings: Homo sapiens; OVCAR-5, 10 µM; read-out: Growth Percent

- smiles.input: "O=C(/C=C/c1ccc(Cl)cc1)c1ccc(-n2cc(CN3CCN(c4cc5c(cc4F)c(=O)c(C(=O)O)cn5C4CC4)CC3)nn2)cc1"
  u: "%"
  activity at 10 µM: 92.2
- smiles.input: "COc1ccc(/C=C/C(=O)c2ccc(-n3cc(CN4CCN(c5cc6c(cc5F)c(=O)c(C(=O)O)cn6C5CC5)CC4)nn3)cc2)cc1OC"
  u: "%"
  activity at 10 µM: 92.1
- smiles.input: "O=C(/C=C/c1ccccc1)c1ccc(-n2cc(CN3CCN(c4cc5c(cc4F)c(=O)c(C(=O)O)cn5C4CC4)CC3)nn2)cc1"
  u: "%"
  activity at 10 µM: 103
- smiles.input: "COc1ccc(/C=C/C(=O)c2ccc(-n3cc(CN4CCN(c5cc6c(cc5F)c(=O)c(C(=O)O)cn6C5CC5)CC4)nn3)cc2)cc1"
  u: "%"
  activity at 10 µM: 100
- smiles.input: "Cc1ccc(/C=C/C(=O)c2ccc(-n3cc(CN4CCN(c5cc6c(cc5F)c(=O)c(C(=O)O)cn6C5CC5)CC4)nn3)cc2)cc1"
  u: "%"
  activity at 10 µM: 99.5

###

test system: RXF 393; test: NCI one-dose screen; type: cell-based; conditions: Homo sapiens; RXF 393, 10 µM; read-out: Growth Percent
Listing: activity at 10 µM of selected compounds

- compound: "CN(C)c1ccc(/C=C/C(=O)c2ccc(-n3cc(CN4CCN(c5cc6c(cc5F)c(=O)c(C(=O)O)cn6C5CC5)CC4)nn3)cc2)cc1 [Compound 4h]"
  activity at 10 µM: "70.9%"
- compound: "O=C(/C=C/c1cccc(Cl)c1)c1ccc(-n2cc(CN3CCN(c4cc5c(cc4F)c(=O)c(C(=O)O)cn5C4CC4)CC3)nn2)cc1 [Compound 4b]"
  activity at 10 µM: "70.8%"
- compound: "O=C(/C=C/c1ccc(F)cc1)c1ccc(-n2cc(CN3CCN(c4cc5c(cc4F)c(=O)c(C(=O)O)cn5C4CC4)CC3)nn2)cc1 [Compound 4e]"
  activity at 10 µM: "45%"
- compound: "O=C(/C=C/c1ccc(Br)cc1)c1ccc(-n2cc(CN3CCN(c4cc5c(cc4F)c(=O)c(C(=O)O)cn5C4CC4)CC3)nn2)cc1 [Compound 4d]"
  activity at 10 µM: "55.7%"
- compound: "O=C(/C=C/c1ccccc1)c1ccc(-n2cc(CN3CCN(c4cc5c(cc4F)c(=O)c(C(=O)O)cn5C4CC4)CC3)nn2)cc1 [Compound 4a]"
  activity at 10 µM: "72%"
- compound: "Cc1ccc(/C=C/C(=O)c2ccc(-n3cc(CN4CCN(c5cc6c(cc5F)c(=O)c(C(=O)O)cn6C5CC5)CC4)nn3)cc2)cc1 [Compound 4f]"
  activity at 10 µM: "88.4%"
- compound: "COc1ccc(/C=C/C(=O)c2ccc(-n3cc(CN4CCN(c5cc6c(cc5F)c(=O)c(C(=O)O)cn6C5CC5)CC4)nn3)cc2)cc1OC [Compound 4i]"
  activity at 10 µM: "64.2%"
- compound: "COc1ccc(/C=C/C(=O)c2ccc(-n3cc(CN4CCN(c5cc6c(cc5F)c(=O)c(C(=O)O)cn6C5CC5)CC4)nn3)cc2)cc1 [Compound 4g]"
  activity at 10 µM: "75%"
